I'd be grateful if you could share measured Primary assay EC50 (cAMP), n2 for these entries.
Molecular target: T1, glucose-dependent insulinotropic peptide (gastric inhibitory polypeptide) receptor (GIPR), primary cAMP assay (human, UniProt P48546 22-466)
T1 sequence (looked up): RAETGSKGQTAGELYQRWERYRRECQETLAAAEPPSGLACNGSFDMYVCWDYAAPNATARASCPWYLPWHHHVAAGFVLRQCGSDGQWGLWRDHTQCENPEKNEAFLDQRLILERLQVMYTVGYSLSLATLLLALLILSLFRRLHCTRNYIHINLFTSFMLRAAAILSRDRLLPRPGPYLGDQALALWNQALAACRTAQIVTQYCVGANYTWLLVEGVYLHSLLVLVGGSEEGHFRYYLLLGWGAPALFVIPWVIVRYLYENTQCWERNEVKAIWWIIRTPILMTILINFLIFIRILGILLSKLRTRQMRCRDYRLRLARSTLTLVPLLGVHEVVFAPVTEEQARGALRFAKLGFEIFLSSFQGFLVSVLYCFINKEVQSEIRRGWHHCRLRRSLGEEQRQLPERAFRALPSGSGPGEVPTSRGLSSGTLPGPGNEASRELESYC
Experiment: cell-based or functional assay
Starred links: 1 amine or outer side, 2 acyl side, 3 side chain; linkers in the order of their positions; H or OH if unused. Non-standard residues stand in square brackets, D forms with d. Groups on a side chain read outwards from the residue. Primed or numbered codes have the meaning given here. No end group written: not given here. *: point of attachment. γGlu = O=C(O)[C@H](CCC(=O)[*:2])N[*:1]; Stearoyl = CCCCCCCCCCCCCCCCCC(=O)*; αMeF = C[C@](N)(Cc1ccccc1)C(=O)O; αMeK = C[C@](N)(CCCCN)C(=O)O; Lauroyl = CCCCCCCCCCCC(=O)*; αMeS = C[C@](N)(CO)C(=O)O; PEG2′ = not defined here; Aib = CC(C)(N)C(=O)O
Could you write the number and then its unit?

binder="H[Aib]EGS[αMeF]TSDK([PEG2′-PEG2′-γGlu-Lauroyl])SSYLEGEAA[αMeK]EFIAK([PEG2′-PEG2′-γGlu-Lauroyl])VVEGG-NH2 [SEQ ID NO: 257]" reported_metric="Primary assay EC50 (cAMP), n2" endpoint_result="22.8 nM"

--- query ---
Consider the binder H[Aib]EGS[αMeF]TSDV[αMeS]SK([PEG2′-PEG2′-γGlu-Stearoyl])LEGEAA[αMeK]E[αMeF]IAK([PEG2′-PEG2′-γGlu-Stearoyl])VVEGG-NH2 [SEQ ID NO: 410] . State its measured Primary assay EC50 (cAMP), n2.
21.5 nM
